All figures here come from patent US20120288511A1.

# target-of-assay: glucagon receptor (human, UniProt P47871 26-477)
# Sequence (P47871 26-477): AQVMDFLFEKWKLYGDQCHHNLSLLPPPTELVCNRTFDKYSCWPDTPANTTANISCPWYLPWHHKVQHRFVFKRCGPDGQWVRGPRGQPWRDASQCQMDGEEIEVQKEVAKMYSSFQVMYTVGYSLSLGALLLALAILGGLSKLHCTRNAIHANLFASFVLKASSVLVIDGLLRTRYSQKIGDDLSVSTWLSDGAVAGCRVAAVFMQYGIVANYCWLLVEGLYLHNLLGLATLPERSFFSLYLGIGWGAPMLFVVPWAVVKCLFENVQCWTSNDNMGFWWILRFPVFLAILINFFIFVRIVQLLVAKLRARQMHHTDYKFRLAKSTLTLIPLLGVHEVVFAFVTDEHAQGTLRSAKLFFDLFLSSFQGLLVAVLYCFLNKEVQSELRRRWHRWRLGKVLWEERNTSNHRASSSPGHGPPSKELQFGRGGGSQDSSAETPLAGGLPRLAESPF
# assay-details: cell-based or functional assay
No end group written: not given here.
Below, each entry is listed with its recorded EC50 (cAMP luciferase reporter).
Numbers only; they are read as nM.

KAHSEGTFTSDYSKYLDSRRAQDFVQWLMNT (not fully specified; also: further groups not given here) [Peptide 12]
85.9

Form: binder = HSQGTFTSDYSKYLDKRRAEDFVQWLMNT (not fully specified; also: further groups not given here) [Peptide 3] ; EC50 (cAMP luciferase reporter) = 0.34

GET /value?item= KAHSEGTFTSDYSKYLDSRRAQDFVQWLMNT (not fully specified; also: further groups not given here) [Peptide 13] &field=EC50 (cAMP luciferase reporter) returns 30.7

// recorded EC50 (cAMP luciferase reporter) for HSQKTFTEDYSKYLDSRRAQDFVQWLMNT (not fully specified; also: further groups not given here) [Peptide 17] : 862
